- Test system: MCF7
- METHOD_SUMMARY: Antiproliferative activity against human MCF7 cells assessed as inhibition of cell growth incubated for 72 hrs by SRB assay
- Format: functional, cell-based
- RUN_PARAMETERS: MCF7, 72 h
pIC50: −log10 of the molar value.
OBSERVATION_TYPE: pIC50

Record excerpt, results attached:
>>> result("C/C=C1\\CN(C)[C@H]2Cc3c([nH]c4ccccc34)[C@H](c3cc4[nH]c5c(c4cc3OC)CCN3C[C@H]4C[C@H](CC)[C@H]3[C@H]5C4)C[C@H]1[C@@H]2C(=O)OC")
"> 5.00"
>>> result("C/C=C1\\CN(C)[C@H]2Cc3c([nH]c4ccccc34)[C@H](c3c(OC)ccc4c5c([nH]c34)[C@]3(C(=O)OC)C[C@@H]4C[C@H](CC)[C@@H]3N(CC5)C4)C[C@H]1[C@@H]2C(=O)OC")
"> 5.00"
>>> result("C/C=C1/CN(C)[C@H]2Cc3c([nH]c4ccccc34)[C@H](c3ccc4[nH]c5c(c4c3)CCN3C[C@@H]4C[C@H](CC)[C@H]3[C@@H]5C4)C[C@H]1[C@@H]2C(=O)OC")
"> 5.00"

Could you now look at the following molecule, please?
Ask: Name the reported pIC50 value associated with the molecule `CC[C@@H]1CN(C)[C@H]2Cc3c([nH]c4ccccc34)[C@H](c3ccc4[nH]c5c(c4c3)CCN3[C@H](CC(C)=O)[C@@H]4C[C@@H](CC)[C@H]3[C@]5(C(=O)OC)C4)C[C@H]1[C@@H]2C(=O)OC`
Result: 4.96
